Where these numbers come from: patent US20240067651A1

Protocol: Plasma Stability
Format: in vitro ADME, human
Conditions: % remaining at 1 h; human plasma, 1 μM, 37° C.
Endpoint Label: human Plasma stability (%)

Recorded human Plasma stability, per entry:
Record summary for CC(C)OCCn1c(=S)[nH]c(=O)c2c1ccn2COC(N)=O : reported human Plasma stability = 99

Sample CC(C)OCCn1c2nc(=O)c3c1ccn3COC(=O)C(C)(C)CCCCC(C)(C)C(=O)OCS2 ; human Plasma stability observed: 90

1: CC(C)OCCn1c(=S)[nH]c(=O)c2c1ccn2COC(=O)NCC(F)(F)F
2: CC(C)OCCn1c(=S)[nH]c(=O)c2c1ccn2COC(=O)CCCCCCC(=O)OCCl
// query Field: entry with larger human Plasma stability (options 1 / 2 ). State the label of the item chosen.
// result 1
(1: 97%, 2: 1%)

* * *

Protocol: Stability in Simulated Gastric Fluid (SGF)
Type: in vitro ADME
Set-up: key: % parent compound remaining relative to 0-minute sample
Conditions: % @ 1 h (remaining) in simulated gastric fluid
Endpoint Label: SGF (% @ 1 h)
# output: bare number, implied unit % @ 1 h

Some compounds with recorded SGF:
compound CC(C)OCCn1c(SCOC(=O)N(C)C)nc(=O)c2[nH]ccc21.O=C(O)C(F)(F)F , SGF observed: 100

SGF reported for this compound CC(C)OCCn1c(SCOC(=O)N(C)C(C)(C)C)nc(=O)c2c1ccn2COC(=O)N(C)C(C)(C)C.O=C(O)C(F)(F)F : 100

Continue with the next compound.
Value of SGF reported for the compound C=CCN(C)C(=O)OCSc1nc(=O)c2[nH]ccc2n1CCOC(C)C.O=C(O)C(F)(F)F is 99

* * *

Protocol: Stability in Simulated Gastric Fluid (SGF)
Type: in vitro ADME
Design: key: % parent compound remaining relative to 0-minute sample
Conditions: % remaining at 1 h in simulated gastric fluid
Endpoint Label: SGF (% remaining)
Please give a number only; it is taken to be in % remaining.

Query CC(C)C[C@H](N)C(=O)NCCC(=O)OCn1ccc2c1c(=O)[nH]c(=S)n2CCOC(C)C.O=C(O)C(F)(F)F [Example 30] yields SGF of 93

Others:
Reported SGF ( CC(C)OCCn1c(=S)[nH]c(=O)c2c1ccn2COC(=O)CCCCNC(=O)C1CCCN1C(=O)OC(C)C.O=C(O)C(F)(F)F (stereo not drawn) [Example 67] ) = 92

Sure, the documented SGF for CC[C@H](C)[C@H](N)C(=O)NCCCCC(=O)OCn1ccc2c1c(=O)[nH]c(=S)n2CCOC(C)C.O=C(O)C(F)(F)F [Example 37] is 88

Entry COC(=O)N1CCCC1C(=O)NCCCCC(=O)OCn1ccc2c1c(=O)[nH]c(=S)n2CCOC(C)C.O=C(O)C(F)(F)F (stereo not drawn) [Example 61] ; SGF = 98

Input CC(C)OCCn1c(=S)[nH]c(=O)c2c1ccn2COC(=O)CCCCNC(=O)CN(C)C(=O)OC(C)(C)C.O=C(O)C(F)(F)F [Example 53] . Output SGF: 92

* * *

Protocol: Stability in Simulated Gastric Fluid (SGF)
Assay type: in vitro ADME
Design: key: % parent compound remaining relative to 0-minute sample
Conditions: % remaining at 1 h in simulated gastric fluid
Endpoint Label: SGF (% remaining)

Check out these entries, answers already filled in.
Record CC(C)C[C@H](NC(=O)OC(C)(C)C)C(=O)NCCCCC(=O)OCn1ccc2c1c(=O)[nH]c(=S)n2CCOC(C)C . Reported SGF: 99

# molecule CC(C)OCCn1c(=S)[nH]c(=O)c2c1ccn2COC(=O)CCNC(=O)[C@@H]1CCC(=O)N1C.O=C(O)C(F)(F)F ; its SGF = 98

Entry CC(C)OCCn1c(=S)[nH]c(=O)c2c1ccn2COC(=O)CCCCNC(=O)CNC(=O)OC(C)(C)C — recorded SGF = 96

// recorded SGF for CC(C)OCCn1c(=S)[nH]c(=O)c2c1ccn2COC(=O)CCCCNC(=O)[C@H](CO)NC(=O)OC(C)(C)C.O=C(O)C(F)(F)F : 78

So for CC(C)OCCn1c(=S)[nH]c(=O)c2c1ccn2COC(=O)CCNC(=O)[C@@H](N)C(C)C.O=C(O)C(F)(F)F , the logged SGF turned out to be 95

Value of SGF reported for the molecule COC(=O)N1CCCC1C(=O)NCCC(=O)OCn1ccc2c1c(=O)[nH]c(=S)n2CCOC(C)C.O=C(O)C(F)(F)F (stereo not shown) is 99

# molecule CC(C)OCCn1c(=S)[nH]c(=O)c2c1ccn2COC(=O)CCCCNC(=O)[C@@H]1CCC(=O)N1C.O=C(O)C(F)(F)F ; its SGF = 97

The molecule CC(C)OCCn1c(=S)[nH]c(=O)c2c1ccn2COC(=O)CCNC(=O)[C@@H](NC(=O)OC(C)(C)C)[C@@H](C)O.O=C(O)C(F)(F)F showed SGF equal to 95

Entry under test: CC(C)OCCn1c(=S)[nH]c(=O)c2c1ccn2COC(=O)CCNC(=O)[C@@H](N)Cc1ccc(O)cc1.O=C(O)C(F)(F)F . Its SGF was 99

a: CC(C)OCCn1c(SCOC(=O)C2CCN(C(=O)OC(C)(C)C)CC2)nc(=O)c2c1ccn2COC(=O)CCC(=O)OC(C)(C)C
b: CC(C)OCCn1c(=S)n(COC(=O)C2CCN(C(=O)OC(C)(C)C)CC2)c(=O)c2c1ccn2COC(=O)CCC(=O)OC(C)(C)C
c: CC(C)OCCn1c(=S)[nH]c(=O)c2c1ccn2COC(=O)[C@H]1CCN(C(=O)OC(C)(C)C)C1
// query Arrange these molecules by their SGF, starting with the largest number. Please respond with the labels ordered as the question requires.
// result a, c, b

* * *

Protocol: Plasma Stability
Assay type: in vitro ADME, human
Conditions: % remaining @ 1 h
Endpoint Label: human Plasma stability (% @ 1 h)

Known results for molecules:
Recorded human Plasma stability (molecule CC(C)OCCn1c(SCOC(=O)[C@H](N)Cc2ccccc2)nc(=O)c2c1ccn2COC(=O)[C@H](N)Cc1ccccc1.O=C(O)C(F)(F)F.O=C(O)C(F)(F)F [Example 312] ): 24

Summary for this molecule, CC(C)OCCn1c(=S)[nH]c(=O)c2c1ccn2COC(=O)[C@@H](NC(=O)OC(C)(C)C)C(C)C [Example 294] : human Plasma stability is 98

Field human Plasma stability (entry CC(C)OCCn1c(=S)n(COC(=O)[C@H](C)N)c(=O)c2c1ccn2COC(=O)[C@H](C)N.O=C(O)C(F)(F)F.O=C(O)C(F)(F)F [Example 289] ) reads 39

Given item CC(C)OCCn1c(=S)n(COC(=O)[C@H](N)C(C)C)c(=O)c2c1ccn2COC(=O)[C@H](N)C(C)C.O=C(O)C(F)(F)F.O=C(O)C(F)(F)F [Example 301] , the value recorded as its human Plasma stability is 5

// sample CC(C)OCCn1c(=S)n(COC(=O)[C@H](N)Cc2ccccc2)c(=O)c2c1ccn2COC(=O)[C@H](N)Cc1ccccc1.O=C(O)C(F)(F)F.O=C(O)C(F)(F)F [Example 313] , its human Plasma stability was 99

Quick note, human Plasma stability for CC(C)OCCn1c(=S)[nH]c(=O)c2c1ccn2COC(=O)CCCCOC(=O)CN.O=C(O)C(F)(F)F [Example 330] landed at 2

A: CC(C)OCCn1c(=S)[nH]c(=O)c2c1ccn2COC(=O)[C@H](NC(=O)OC(C)(C)C)C(C)C [Example 298]
B: CC(C)OCCn1c(SCOC(=O)CCCCOC(=O)CNC(=O)OC(C)(C)C)nc(=O)c2c1ccn2COC(=O)CCCCOC(=O)CNC(=O)OC(C)(C)C [Example 329]
// query Would you let me know which has the greater human Plasma stability value, A or B ? Refer to your chosen item by its label in the answer.
// result A

* * *

Protocol: Stability in Simulated Intestinal Fluid (SIF)
Type: in vitro ADME
Set-up: key: % parent compound remaining relative to 0-minute sample
Conditions: bare number, unit or time not given
Endpoint Label: SIF

A: CC(C)OCCn1c(SCO)nc(=O)c2[nH]ccc21
B: CC(C)OCCn1c(=S)[nH]c(=O)c2c1ccn2COC(=O)CCCCOC(=O)[C@H](Cc1ccccc1)NC(=O)OC(C)(C)C
// query Which is greater in SIF, the first item A or the second item B ? Kindly give the label for the entry you pick.
// result A

* * *

Protocol: Caco-2 Permeability Assay
Type: in vitro ADME, human
Conditions: human, Caco-2, pH 7.4
Endpoint Label: Papp at 90 min, 10 µM (×10⁻⁶ cm/s)

Past entries and their recorded results:
Data point: CC(C)OCCn1c(=S)n(COC(=O)[C@H](N)Cc2ccccc2)c(=O)c2c1ccn2COC(=O)[C@H](N)Cc1ccccc1.O=C(O)C(F)(F)F.O=C(O)C(F)(F)F ; Papp at 90 min, 10 µM = 0.49

Entry under test: CC(C)C[C@@H](N)C(=O)OCSc1nc(=O)c2c(ccn2COC(=O)[C@H](N)CC(C)C)n1CCOC(C)C.O=C(O)C(F)(F)F.O=C(O)C(F)(F)F . Its Papp at 90 min, 10 µM was 0.908

According to the records, this molecule CC(C)OCCn1c(=S)[nH]c(=O)c2c1ccn2COC(=O)CCCCOC(=O)CN.O=C(O)C(F)(F)F displays Papp at 90 min, 10 µM of 0.641

a: CC(C)C[C@@H](NC(=O)OC(C)(C)C)C(=O)OCn1c(=O)c2c(ccn2COC(=O)[C@@H](CC(C)C)NC(=O)OC(C)(C)C)n(CCOC(C)C)c1=S
b: CC(C)OCCn1c(SCOC(=O)[C@@H](NC(=O)OC(C)(C)C)C(C)C)nc(=O)c2c1ccn2COC(=O)[C@@H](NC(=O)OC(C)(C)C)C(C)C
// query Which shows the larger Papp at 90 min, 10 µM value: a or b ? State your choice using its label.
// result b
